Biological target: KGA_D520K (Homo sapiens, UniProt O94925, D520K)
Construct: a KGA cDNA fragment of 1644 bp (residues Leu123-Leu669); His-tag (N)
Sequence (O94925 123-669 D520K): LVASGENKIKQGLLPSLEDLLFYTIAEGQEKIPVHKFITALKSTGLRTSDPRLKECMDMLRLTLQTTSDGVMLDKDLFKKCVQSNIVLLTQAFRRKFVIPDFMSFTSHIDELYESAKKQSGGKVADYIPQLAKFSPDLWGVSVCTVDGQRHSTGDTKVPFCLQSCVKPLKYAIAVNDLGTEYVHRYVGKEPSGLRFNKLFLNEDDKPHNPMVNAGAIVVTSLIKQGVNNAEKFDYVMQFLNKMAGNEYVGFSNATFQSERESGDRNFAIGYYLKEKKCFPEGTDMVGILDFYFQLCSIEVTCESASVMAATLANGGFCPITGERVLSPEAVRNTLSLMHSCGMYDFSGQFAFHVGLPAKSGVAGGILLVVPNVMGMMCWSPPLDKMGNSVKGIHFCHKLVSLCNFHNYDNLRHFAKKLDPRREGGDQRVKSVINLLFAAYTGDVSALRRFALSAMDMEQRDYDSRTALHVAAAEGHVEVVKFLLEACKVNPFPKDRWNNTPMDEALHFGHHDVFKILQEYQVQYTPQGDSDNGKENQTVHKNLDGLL
Test: Glutaminase activity assay, KGA mutant D520K
EXPERIMENTAL READOUT: IC50

## Input Report IC50 for CCCCCCCCCCCCCC(CC1=CC(=O)C=C(OC)C1=O)OC(C)=O (stereo not shown)
## Output 0.29 µM

###

System: HepG2 cells
Test: Colony (focus) formation assay, HepG2
Assay type: cell-based, human
Conditions: HepG2, 21-day treatment
EXPERIMENTAL READOUT: pIC50
Scale note: pIC50 = -log10(concentration in M).

## Input Report pIC50 for "O=C(Cc1ccccc1)Nc1nnc(CCSCCc2nnc(NC(=O)Cc3ccccc3)s2)s1"
## Output 5.55

###

List of CC50 values.
Assay: Carcinoma cell growth inhibition (cytotoxicity), A549
Conditions: human, A549 lung carcinoma cells
State the answer as a number, implicitly in µM.

compound=CCCCCCCc1cc(O)cc(OC)c1 result=35.5
compound="CCCCCCCCCCCC(Cc1cc(O)cc(OC)c1O)OC(C)=O (centres unmarked)" result=11.6
compound="CCCCCCCCCCCCCC(Cc1cc(OC(C)=O)cc(OC)c1O)OC(C)=O (centres unmarked)" result=5
compound="CCCCCCCCCCCC(Cc1cc(OC(C)=O)cc(OC)c1O)OC(C)=O (centres unmarked)" result=13

Alright, here's another compound for you.
## Input Report CC50 for CCCCCCCCCCCC(Cc1c(O)c(OC)cc(O)c1C=O)OC(C)=O (centres unmarked)
## Output 22.1

###

Molecular target: human KGA (Homo sapiens)
Construct: a KGA cDNA fragment of 1644 bp (residues Leu123-Leu669); His-tag (N)
Sequence (O94925 123-669): as the sequence (O94925 123-669 D520K) above, with K398D counted along it
Assay: Two-step glutaminase activity assay, purified recombinant KGA
Conditions: recombinant wild-type KGA, absence of phosphate
Decide using IC50 alone. Strictly below 20 µM: condition met. Equal to or above 20 µM: condition not met.

Answered cases to consult:
compound="[N-]=[N+]=CC(=O)CC[C@H](N)C(=O)O [DON, reference compound]" system_under_test="human KGA (Homo sapiens)" cat="condition not met"
compound="CCCCCCCc1cc(O)cc(OC)c1 [AV-13]" system_under_test="human KGA (Homo sapiens)" cat="condition not met"
compound="CCCCCCCCCCCCCC(Cc1cc(OC(C)=O)cc(OC)c1O)OC(C)=O (stereo not shown) [AV-11]" system_under_test="human KGA (Homo sapiens)" cat="condition not met"
compound="CCCCCCCCCCCCCC(=O)Cc1cc(O)cc(OC)c1OC(C)=O [AV-14]" system_under_test="human KGA (Homo sapiens)" cat="condition not met"
compound="Cc1c(O)cc(CCCCCCC/C=C\\CCCCCCCc2cc(O)cc(O)c2)cc1O [AK-9]" system_under_test="human KGA (Homo sapiens)" cat="condition met"

## Input Is the reported IC50 for CCCCCC/C=C\CCCCCCCc1cc(O)c(C)c(O)c1 [AK-4] strictly below 20 µM?
## Output condition not met

## Input Is the reported IC50 for CCCCCCCC/C=C\CCCCCCCc1cc(O)cc(O)c1 [AK-1] strictly below 20 µM?
## Output condition not met

## Input Is the reported IC50 for CCCCCCCC/C=C\CCCCCCCc1cc(O)c(C)c(O)c1 [AK-3] strictly below 20 µM?
## Output condition not met

## Input Is the reported IC50 for COc1cc(O)cc(CCCCCCC/C=C\CCCCCCCc2cc(O)c(C)c(O)c2)c1 [AK-5] strictly below 20 µM?
## Output condition not met

## Input Is the reported IC50 for Cc1c(O)cc(CCCCCCC/C=C\CCCCCCCc2cc(O)c(C)c(O)c2)cc1O [AK-7] strictly below 20 µM?
## Output condition met

## Input Is the reported IC50 for COc1cc(O)cc(CCCCCCC/C=C\CCCCCc2cc(O)cc(O)c2)c1 [AK-12] strictly below 20 µM?
## Output condition met

## Input Is the reported IC50 for CCCCCCCCCCCCCC(O)Cc1cc(O)cc(OC)c1 (stereo not shown) [AV-12] strictly below 20 µM?
## Output condition not met

## Input Is the reported IC50 for Cc1c(O)cc(CCCCC/C=C\CCCCCCCc2cc(O)c(C)c(O)c2)cc1O [AK-8] strictly below 20 µM?
## Output condition met

## Input Is the reported IC50 for COc1cc(O)cc(CCCCCCC/C=C\CCCCCCCc2cc(O)cc(O)c2)c1 [AK-11] strictly below 20 µM?
## Output condition met

## Input Is the reported IC50 for COc1cc(O)cc(CCCCC/C=C\CCCCCCCc2cc(O)c(C)c(O)c2)c1 [AK-6] strictly below 20 µM?
## Output condition not met

## Input Is the reported IC50 for Cc1c(O)cc(CCCCCCC/C=C\CCCCCc2cc(O)cc(O)c2)cc1O [AK-10] strictly below 20 µM?
## Output condition met

###

Experiment: in vitro
Conditions: human
EXPERIMENTAL READOUT: CC50

## Input Report CC50 for CCCCCCCCCCCCCC1=C(O)C(=O)C=C(OC)C1=O [AV-7]
## Output > 50 µM

###

Target: human GAB (Homo sapiens)
Construct: Equivalent construct of GAB (Pro56-Val602) was amplified from the cDNA clone; His-tag (N)
Sequence (Q9UI32 56-602): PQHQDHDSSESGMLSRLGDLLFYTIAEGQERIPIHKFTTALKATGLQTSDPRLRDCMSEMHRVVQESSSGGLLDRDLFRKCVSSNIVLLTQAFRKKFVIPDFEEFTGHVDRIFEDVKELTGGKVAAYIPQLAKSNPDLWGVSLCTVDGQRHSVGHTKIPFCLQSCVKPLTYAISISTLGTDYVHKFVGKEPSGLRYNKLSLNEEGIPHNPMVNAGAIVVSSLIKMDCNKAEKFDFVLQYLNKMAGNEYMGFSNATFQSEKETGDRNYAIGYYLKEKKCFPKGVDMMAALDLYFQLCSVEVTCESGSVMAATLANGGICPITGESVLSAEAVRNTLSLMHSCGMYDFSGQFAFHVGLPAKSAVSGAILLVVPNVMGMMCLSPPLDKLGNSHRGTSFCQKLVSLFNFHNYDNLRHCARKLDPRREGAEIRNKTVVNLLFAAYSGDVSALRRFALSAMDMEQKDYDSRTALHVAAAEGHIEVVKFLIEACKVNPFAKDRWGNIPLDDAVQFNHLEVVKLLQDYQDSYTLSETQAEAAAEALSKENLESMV
Test: Two-step glutaminase activity assay, purified recombinant GAB
Conditions: recombinant wild-type GAB, absence of phosphate
Description: Equivalent construct of GAB […]) was amplified from the cDNA clone MGC: 195512 IMAGE: 100066375 (Invitrogen Inc., USA). The sequences of the primers were: [NT] (BamHI) and [NT] (Notl). […] Human glutaminase activity was measured using a two-step assay as described previously. […] The absorbance at 340 nm was measured using a Wallac Victor2V plate reader (PerkinElmer), fitted with a 340 nm excitation filter. Sample absorbance was measured against a blank, containing no human glutaminase. […]
EXPERIMENTAL READOUT: pIC50
Scale note: pIC50 = -log10(concentration in M).

The following compounds have reported results that may help.
compound="Cc1c(O)cc(CCCCCCC/C=C\\CCCCCCCc2cc(O)c(C)c(O)c2)cc1O [AK-7]" system_under_test="human GAB (Homo sapiens)" experimental_readout=pIC50 result=5.54
compound="CCCCCCCC/C=C\\CCCCCCCc1cc(O)c(C)c(O)c1 [AK-3]" system_under_test="human GAB (Homo sapiens)" experimental_readout=pIC50 result=5.57
compound="CCCCCCCCCCCC(Cc1cc(OC(C)=O)cc(OC)c1O)OC(C)=O (centres unmarked) [AV-9]" system_under_test="human GAB (Homo sapiens)" experimental_readout=pIC50 result=4.50
compound="COc1cc(O)cc(CCCCC/C=C\\CCCCCCCc2cc(O)c(C)c(O)c2)c1 [AK-6]" system_under_test="human GAB (Homo sapiens)" experimental_readout=pIC50 result=5.60

Alright, here's another compound for you.
## Input Tell me its pIC50 on human GAB (Homo sapiens): COc1cc(O)cc(CCCCCCC/C=C\CCCCCc2cc(O)cc(O)c2)c1 [AK-12]
## Output 5.54

###

Experiment: Carcinoma cell growth inhibition (cytotoxicity), HepG2
Conditions: human, HepG2 hepatocarcinoma cells
List of CC50 values.

The following compounds have reported results that may help.
compound="CCCCCCCc1cc(O)cc(OC)c1 [AV-13]" result="36.9 µM"
compound="CCCCCCCCCCCCCC(O)Cc1cc(O)cc(OC)c1 (centres unmarked) [AV-12]" result="> 50 µM"
compound="Cc1c(O)cc(CCCCCCC/C=C\\CCCCCCCc2cc(O)c(C)c(O)c2)cc1O [AK-7]" result="> 100 µM"
compound="CCCCCCCCCCCC(Cc1cc(OC(C)=O)cc(OC)c1O)OC(C)=O (centres unmarked) [AV-9]" result="13.7 µM"
compound="COc1cc(O)cc(CCCCCCC/C=C\\CCCCCc2cc(O)cc(O)c2)c1 [AK-12]" result="84.6 µM"

## Input Report CC50 for CCCCCCCCCCCC(Cc1c(O)c(OC)cc(O)c1C=O)OC(C)=O (centres unmarked) [AV-10]
## Output 21.2 µM

## Input Report CC50 for CCCCCCCCCCCCCC(=O)Cc1cc(O)cc(OC)c1OC(C)=O [AV-14]
## Output > 50 µM

## Input Report CC50 for CCCCCCCCCCCCCC(Cc1cc(OC(C)=O)cc(OC)c1O)OC(C)=O (centres unmarked) [AV-11]
## Output 5.2 µM

## Input Report CC50 for CCCCCCCCCCCC(CC1=C(O)C(=O)C=C(OC)C1=O)OC(C)=O (centres unmarked) [AV-4]
## Output > 50 µM

## Input Report CC50 for CCCCCCCCCCCCCC(CC1=C(O)C(=O)C=C(OC)C1=O)OC(C)=O (centres unmarked) [AV-3]
## Output > 50 µM

## Input Report CC50 for CCCCCCCCCCCC(Cc1cc(O)cc(OC)c1O)OC(C)=O (centres unmarked) [AV-8]
## Output 18.8 µM
